Provide the reported glycan array binding signal (z-score) of each item.
- target.under.test: Fuc(a1-2)Gal(b1-3)GlcNAc(b1-3)Gal(b1-4)Glc
- protocol.description: glycan array binding signal (z-score within array); higher = stronger binding
- conditions.used: glycan notation: IUPAC condensed, linker removed
The full list was thinned out, with the strongest signals kept by preference.
Field format: numeric only.

[in] Give its glycan array binding signal (z-score) value. Item: ArathEULS3 TAP (Arabidopsis thaliana) (protein) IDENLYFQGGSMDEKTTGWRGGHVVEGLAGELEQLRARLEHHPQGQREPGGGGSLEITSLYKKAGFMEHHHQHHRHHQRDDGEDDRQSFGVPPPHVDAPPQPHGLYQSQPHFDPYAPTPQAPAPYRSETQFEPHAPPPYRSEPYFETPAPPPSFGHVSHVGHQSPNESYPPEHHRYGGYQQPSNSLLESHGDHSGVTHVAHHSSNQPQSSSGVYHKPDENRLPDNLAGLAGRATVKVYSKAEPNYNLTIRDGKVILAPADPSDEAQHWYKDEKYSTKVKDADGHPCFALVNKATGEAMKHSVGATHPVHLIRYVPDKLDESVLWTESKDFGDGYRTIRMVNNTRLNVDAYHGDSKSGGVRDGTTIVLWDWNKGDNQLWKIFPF
[out] -0.174

[in] Can you share its glycan array binding signal (z-score)? I mean this binder: Gal 3 (Homo sapiens), P17931 (protein) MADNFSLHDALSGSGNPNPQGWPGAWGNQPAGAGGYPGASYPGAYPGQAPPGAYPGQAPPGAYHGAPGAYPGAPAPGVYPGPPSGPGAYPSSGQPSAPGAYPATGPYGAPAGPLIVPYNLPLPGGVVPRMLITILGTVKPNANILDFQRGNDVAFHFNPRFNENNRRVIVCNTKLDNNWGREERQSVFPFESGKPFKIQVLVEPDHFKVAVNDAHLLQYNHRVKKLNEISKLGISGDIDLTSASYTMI
[out] 1.9
